Attribute: % inhibition at 10 μmol/L
# study.target: CXCR3 (Homo sapiens, UniProt P49682)
# Construct: expressed in transfected cells
# Sequence (P49682 whole entry): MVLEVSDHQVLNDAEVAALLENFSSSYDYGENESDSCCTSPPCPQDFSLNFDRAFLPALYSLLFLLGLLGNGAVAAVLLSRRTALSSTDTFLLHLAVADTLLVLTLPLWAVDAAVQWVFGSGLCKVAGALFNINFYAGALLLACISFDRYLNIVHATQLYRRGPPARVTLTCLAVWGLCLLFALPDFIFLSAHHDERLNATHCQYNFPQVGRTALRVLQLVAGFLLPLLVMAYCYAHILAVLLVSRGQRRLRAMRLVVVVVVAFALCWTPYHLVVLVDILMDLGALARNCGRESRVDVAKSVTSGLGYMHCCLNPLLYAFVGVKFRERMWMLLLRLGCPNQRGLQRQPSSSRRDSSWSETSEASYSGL
# test.details: CXCR3/IP-10 radioligand binding (125I-IP-10 competition, CXCR3.L1/2 cell membranes)
# reported.conditions: Table 5; test compound 10 μmol/L; 125I-labeled IP-10 binding to CXCR3.L1/2 transfectant cell membrane
A number alone suffices; assume %.

Past entries and their recorded results:
>>> numeric_value("CCN(CCN1CCN(Cc2cccc3ccccc23)C1=C(C#N)C#N)Cc1ccc(CN2CCN(CCO)CC2)cc1 [Compound 11]")
91
>>> numeric_value("N#CC(C#N)=C1N(CCN(Cc2cccc(CN3CCCCC3)c2)Cc2cccc(CN3CCCCC3)c2)CCN1Cc1cccc2ccccc12 [Compound 19]")
68
>>> numeric_value("N#CC(C#N)=C1N(CCN(Cc2cccc(CN3CCCCC3)c2)C(=O)c2ccccc2)CCN1Cc1cccc2ccccc12 [Compound 13]")
61
>>> numeric_value("N#CC(C#N)=C1N(CCN(Cc2ccccc2)Cc2cccc(CN3CCCCC3)c2)CCN1Cc1cccc2ccccc12 [Compound 18]")
67
>>> numeric_value("CCN(CCN1CCN(Cc2cccc3ccccc23)C1=C(C#N)C#N)Cc1ccc(CN2CCOCC2)cc1 [Compound 7]")
92

Quick note, % inhibition at 10 μmol/L for CN(CCN1CCN(Cc2cccc3ccccc23)C1=C(C#N)C#N)Cc1cccc(CN2CCCCC2)c1 [Compound 6] landed at 99

Quick note, % inhibition at 10 μmol/L for CCN(CCN1CCN(Cc2cccc3ccccc23)C1=C(C#N)C#N)Cc1ccc(CN2CCN(C)CC2)cc1 [Compound 8] landed at 86
